- testedOn: T1, human CD20 (human, UniProt P11836 1-297)
- T1 sequence (looked up): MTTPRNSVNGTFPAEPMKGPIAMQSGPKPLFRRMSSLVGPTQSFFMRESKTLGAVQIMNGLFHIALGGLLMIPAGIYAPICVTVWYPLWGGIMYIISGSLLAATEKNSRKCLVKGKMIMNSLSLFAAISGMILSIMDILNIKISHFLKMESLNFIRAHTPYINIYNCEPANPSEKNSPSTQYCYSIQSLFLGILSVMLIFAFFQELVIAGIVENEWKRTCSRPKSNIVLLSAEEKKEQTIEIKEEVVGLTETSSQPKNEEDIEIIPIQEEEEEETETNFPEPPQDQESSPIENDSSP
- testSummary: cell-based or functional assay
readoutKind: % Lysis Ramos 1 µg/ml ADCC (%)

binder	readoutKind	result
mAb 2.2.2 (antibody, human IgG1, V domains shown) VH: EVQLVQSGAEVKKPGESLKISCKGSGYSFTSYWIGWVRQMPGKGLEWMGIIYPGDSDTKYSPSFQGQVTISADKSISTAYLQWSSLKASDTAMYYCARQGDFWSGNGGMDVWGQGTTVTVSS VL: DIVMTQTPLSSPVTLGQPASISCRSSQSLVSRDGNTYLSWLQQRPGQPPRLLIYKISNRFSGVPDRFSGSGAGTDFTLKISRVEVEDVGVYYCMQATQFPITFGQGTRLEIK	% Lysis Ramos 1 µg/ml ADCC	65
mAb 1.6.2 (antibody, human IgG1, V domains shown) VH: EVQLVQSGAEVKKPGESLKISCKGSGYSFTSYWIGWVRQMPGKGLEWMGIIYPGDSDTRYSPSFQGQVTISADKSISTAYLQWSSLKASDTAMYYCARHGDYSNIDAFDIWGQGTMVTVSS VL: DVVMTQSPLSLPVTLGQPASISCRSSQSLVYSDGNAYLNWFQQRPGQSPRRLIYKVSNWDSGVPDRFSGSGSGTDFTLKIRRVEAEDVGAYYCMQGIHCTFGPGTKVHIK	% Lysis Ramos 1 µg/ml ADCC	43
